method_notes: Antiproliferative activity against human SMMC7721 cells over expressing EGFR after 48 hrs by MTT assay
Format: functional, cell-based
details: SMMC-7721, 48 h
The following compounds are listed with their measured pIC50 values.
The scale used: pIC50 is minus the common logarithm of the concentration in molar units.

Some compounds with recorded pIC50:
>  <test_smiles>
Fc1cccc(Nc2ncnc3ccccc23)c1

>  <pIC50>
4.82

$$$$
>  <test_smiles>
Fc1ccc(Nc2ncnc3ccccc23)cc1Cl

>  <pIC50>
4.30

$$$$
>  <test_smiles>
Cc1nc(Nc2ccc(F)c(Cl)c2)c2cc(NC(=O)CCN3CCOCC3)ccc2n1

>  <pIC50>
5.49

$$$$
>  <test_smiles>
Fc1ccc(Nc2ncnc3ccccc23)cc1

>  <pIC50>
4.66

$$$$
>  <test_smiles>
c1ccc(Nc2ncnc3ccccc23)cc1

>  <pIC50>
4.45

$$$$

Value of pIC50 reported for the compound Cc1nc(Nc2ccc(F)c(Cl)c2)c2cc(NC(=O)CCN3CCCCC3)ccc2n1 is 5.55

Value of pIC50 reported for the compound CNCCC(=O)Nc1ccc2nc(C)nc(Nc3ccc(F)c(Cl)c3)c2c1 is 5.70
